# Tested on: COLO 205
# TEST SUMMARY: NCI tumour cell line growth inhibition, 48 h
The source made the active and inactive calls. Rule as the data show it: active = GI50 up to about 1.1 µM and inactive = higher.
Pick one: y for active, n for inactive

Worked cases, answers included:
COMPOUND | TEST TARGET | LABEL VALUE
CC(=O)Nc1c(Nc2ccccc2)[nH]c(C)nc1=S | COLO 205 | n
O=CC1OC(=O)c2cc(O)c(O)c(O)c2-c2c(cc(O)c(O)c2O)C(=O)OC1C(O)C(O)CO (stereo unspecified) | COLO 205 | n
O=[N+]([O-])c1ccc(NC(=S)N/N=C(\c2ccccc2)c2ccccn2)cc1 | COLO 205 | y
O=S(=O)(CF)OCCCCOS(=O)(=O)CF | COLO 205 | n
O=C1C2=C(CCCCC2)C2CCCCC12O (stereo unspecified) | COLO 205 | n

*Q* In this assay, the call recorded for `O=C1C(Br)=CC2(C=C1Br)CCNC1=C2C(=O)c2cccnc2C1=O` was what?
*A* n

*Q* In this assay, the call recorded for N#CC1=C(N)OC2=C(CSc3ccccc32)C1c1ccc(Br)cc1 (stereo unspecified) was what?
*A* n

*Q* In this assay, the call recorded for `CN(C)c1ccc(/N=N\c2cccc3ncccc23)cc1` was what?
*A* n

*Q* In this assay, the call recorded for C=CCNC(=O)CN(CC(=O)O)C1CCCCC1N(CC(=O)O)CC(=O)O (stereo unspecified) was what?
*A* n

*Q* In this assay, the call recorded for CCOc1ccc(NC(=O)/C(=N\NC(C)(C)C)C2C(=O)Nc3ccccc3[S+]2[O-])cc1 (stereo unspecified) was what?
*A* n

*Q* In this assay, the call recorded for COc1cc(NS(C)(=O)=O)ccc1Nc1c2ccccc2nc2c1[nH]c1ccc(NC3OC(CO)C(O)C(O)C3O)cc12 (stereo unspecified) was what?
*A* y
